CellTox Green cytotoxicity fluorescence values, listed per item
# Test system: MV4-11
# test_details: CellTox Green cytotoxicity fluorescence relative to DMSO vehicle (fold of vehicle RFU); higher = more cell death (loss of membrane integrity), active = 2 or more
# applied_conditions: 0.01 µM; 24 h
Number only, no unit.

Previously resolved entries follow.
{"columns": ["compound", "data_value"],
 "data": [
  ["Nc1cccc2c1CN(C1CCC(=O)NC1=O)C2=O (centres undefined) [Lenalidomide]", 0.939],
  ["FC(F)(F)c1ccc(CNc2ccc(Cc3c[nH]c4ncc(Cl)cc34)cn2)cn1", 1.01]
]}

# input for lookup
Input COc1cc(C(=O)O)ccc1NC(=O)[C@@H]1N[C@@H](CC(C)(C)C)[C@](C#N)(c2ccc(Cl)cc2F)[C@H]1c1cccc(Cl)c1F . Output CellTox Green cytotoxicity fluorescence: 0.983
